target: Factor X, P00742
Sequence (P00742 whole entry, looked up): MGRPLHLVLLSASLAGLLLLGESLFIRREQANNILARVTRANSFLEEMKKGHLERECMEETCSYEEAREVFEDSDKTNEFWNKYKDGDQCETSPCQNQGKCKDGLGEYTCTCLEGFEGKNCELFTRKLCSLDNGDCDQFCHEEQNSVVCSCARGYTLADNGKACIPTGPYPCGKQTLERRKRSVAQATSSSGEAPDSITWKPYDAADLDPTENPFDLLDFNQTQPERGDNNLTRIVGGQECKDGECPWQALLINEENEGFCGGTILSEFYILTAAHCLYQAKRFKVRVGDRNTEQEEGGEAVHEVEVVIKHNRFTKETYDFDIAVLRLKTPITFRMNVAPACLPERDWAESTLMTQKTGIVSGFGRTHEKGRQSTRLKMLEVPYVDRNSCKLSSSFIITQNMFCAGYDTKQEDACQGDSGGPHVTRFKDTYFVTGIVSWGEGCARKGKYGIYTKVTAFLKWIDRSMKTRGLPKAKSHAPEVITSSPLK

>  <protein>
FIXa-K247N/N249S/R318Y/R338E/E410N (protein) chain 1: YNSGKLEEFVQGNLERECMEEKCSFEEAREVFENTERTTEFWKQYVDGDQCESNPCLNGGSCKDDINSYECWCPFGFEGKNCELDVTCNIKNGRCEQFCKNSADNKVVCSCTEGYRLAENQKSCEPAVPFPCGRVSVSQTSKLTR chain 2: VVGGEDAKPGQFPWQVVLNGKVDAFCGGSIVNEKWIVTAAHCVETGVKITVVAGEHNIEETEHTEQNRSVIRIIPHHNYNAAINKYNHDIALLELDEPLVLNSYVTPICIADKEYTNIFLKFGSGYVSGWGRVFHKGYSALVLQYLRVPLVDRATCLESTKFTIYNNMFCAGFHEGGRDSCQGDSGGPHVTEVEGTSFLTGIISWGEECAMKGKYGIYTKVSRYVNWIKNKTKLT

>  <kcat/KM / M⁻¹ s⁻¹>
2.3e+08

$$$$
>  <protein>
FIXa-Y155F/K228N/K247N/N249S (protein) chain 1: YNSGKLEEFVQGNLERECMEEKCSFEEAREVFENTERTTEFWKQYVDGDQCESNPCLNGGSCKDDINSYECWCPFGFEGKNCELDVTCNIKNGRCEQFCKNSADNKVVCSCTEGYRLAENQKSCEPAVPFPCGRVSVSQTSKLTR chain 2: VVGGEDAKPGQFPWQVVLNGKVDAFCGGSIVNEKWIVTAAHCVETGVNITVVAGEHNIEETEHTEQNRSVIRIIPHHNYNAAINKYNHDIALLELDEPLVLNSYVTPICIADKEYTNIFLKFGSGYVSGWGRVFHKGRSALVLQYLRVPLVDRATCLRSTKFTIYNNMFCAGFHEGGRDSCQGDSGGPHVTEVEGTSFLTGIISWGEECAMKGKYGIYTKVSRYVNWIKEKTKLT

>  <kcat/KM / M⁻¹ s⁻¹>
5.3e+07

$$$$
